# Target Of Assay: T1, CRBN, Q96SW2;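 further: pooled lentiviral library of zinc finger degron-EGFP fusions in mCherry-positive Jurkat cells, FACS-sorted after compound exposure, with degron abundance counted by next-generation sequencing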
# T1 chain: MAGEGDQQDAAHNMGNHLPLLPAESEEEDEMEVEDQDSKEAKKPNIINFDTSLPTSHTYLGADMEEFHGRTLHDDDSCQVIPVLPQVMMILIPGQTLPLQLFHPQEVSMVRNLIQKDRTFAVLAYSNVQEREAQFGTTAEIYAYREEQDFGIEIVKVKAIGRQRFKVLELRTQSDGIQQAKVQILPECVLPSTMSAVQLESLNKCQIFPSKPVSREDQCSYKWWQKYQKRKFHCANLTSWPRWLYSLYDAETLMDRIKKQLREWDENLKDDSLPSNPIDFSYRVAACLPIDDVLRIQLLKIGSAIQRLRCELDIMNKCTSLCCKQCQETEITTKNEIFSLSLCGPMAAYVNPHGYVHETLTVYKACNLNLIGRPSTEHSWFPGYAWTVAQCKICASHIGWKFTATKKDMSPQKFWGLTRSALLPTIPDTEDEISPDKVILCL
# Experiment Summary: log2 fold change of degron read counts, EGFP-low vs EGFP+ sorted cells (limma voom), compound-induced degradation; higher = more compound-induced degradation of the degron-EGFP fusion; degrons are variants of IKZF1/3 zinc finger 2; compound dose not given here
# Recorded Conditions: Jurkat; 18 h; compound: compound 33 (diphenyl IMiD analogue)
Over roughly 8,300 sequences, “log2 fold change of degron read counts, EGFP-low vs EGFP+ sorted cells (limma voom), compound-induced degradation” has its median near -1.1; the highest 2% begin near 3.2. This is one part of a sample in which the highest values are shown more often than they occur.
Measured Endpoint: log2 fold change of degron read counts

INSERT INTO results (macromolecule_sequence, measured_endpoint, reported_value) VALUES
  ('FFCEICGASFTQKGNLLRHIKL [46F_47F_49E_50I_52G_53A_54S_55F_67L_, Q9UKT9]', 'log2 fold change of degron read counts', 2.31),
  ('LACEICGFCCTQKGNLLRHIKL [46L_47A_49E_50I_52G_53F_54C_55C_67L_, Q9UKT9]', 'log2 fold change of degron read counts', -0.0283),
  ('FICEICGASFTQKGNLLRHIKL [46F_47I_49E_50I_52G_53A_54S_55F_67L_, Q9UKT9]', 'log2 fold change of degron read counts', 2.39),
  ('FRCEICGASFTQKGNLLRHIKL [46F_47R_49E_50I_52G_53A_54S_55F_67L_, Q9UKT9]', 'log2 fold change of degron read counts', 2.01),
  ('FFCEICGHSFTQKGNLLRHIKL [46F_47F_49E_50I_52G_53H_54S_55F_67L_, Q9UKT9]', 'log2 fold change of degron read counts', -2.73),
  ('FVCEICGASFTQKGNLLRHIKL [46F_47V_49E_50I_52G_53A_54S_55F_67L_, Q9UKT9]', 'log2 fold change of degron read counts', 1.92),
  ('LSCEICGFCCTQKGNLLRHIKL [46L_47S_49E_50I_52G_53F_54C_55C_67L_, Q9UKT9]', 'log2 fold change of degron read counts', 0.957);
